- System: 21-day-old schistosomules of Schistosoma mansoni
- procedureSummary: effect on 21-day-old schistosomules in mice
- Assay type: in vivo
- conditionContext: total worm reduction rate; single 200 mg/kg per os
Binary call on TWR (%) with cut-off 20%: strictly below means Criterion met, and equality or higher means Criterion not met.

Consider the following illustrative entries.
| molecule | targetUnderTest | category |
| --- | --- | --- |
| O=C1CCC2(CCO1)OOC1(O2)C2CC3CC(C2)CC1C3 (stereo not drawn) | 21-day-old schistosomules of Schistosoma mansoni | Criterion not met |
| CC1(C)COC2(CCC3(CC2)OOC2(O3)C3CC4CC(C3)CC2C4)OC1 (stereo not drawn) | 21-day-old schistosomules of Schistosoma mansoni | Criterion not met |
| CC(C)(C)C1CCC2(CC1)OOC1(O2)C2CC3CC(C2)CC1C3 (stereo not drawn) | 21-day-old schistosomules of Schistosoma mansoni | Criterion met |
| C1C2CC3CC1CC(C2)C31OOC2(O1)C1CC3CC(C1)CC2C3 (stereo not drawn) | 21-day-old schistosomules of Schistosoma mansoni | Criterion met |
| CON=C1CCC2(CC1)OOC1(O2)C2CC3CC(C2)CC1C3 (stereo not drawn) | 21-day-old schistosomules of Schistosoma mansoni | Criterion not met |

Inquiry: Strictly below 20% in TWR (%)? CCOC(=O)N1CCC2(CC1)OOC1(O2)C2CC3CC(C2)CC1C3 (stereo not drawn)
Reply text: Criterion not met

Inquiry: Strictly below 20% in TWR (%)? O=[N+]([O-])c1ccc(NN=C2CCC3(CC2)OOC2(O3)C3CC4CC(C3)CC2C4)c([N+](=O)[O-])c1 (stereo not drawn)
Reply text: Criterion not met

Inquiry: Strictly below 20% in TWR (%)? CO[C@H]1O[C@@H]2O[C@@]3(C)CC[C@H]4[C@H](C)CC[C@@H]([C@H]1C)[C@@]24OO3 [Artemether, artemether, reference compound]
Reply text: Criterion not met

Inquiry: Strictly below 20% in TWR (%)? CC1(C)COC2(CCC3(CC2)OOC2(CC(C)(C)CC(C)(C)C2)O3)OC1
Reply text: Criterion met

* * *

- procedureSummary: differential scanning calorimetry (DSC), thermal stability
- Type: physicochemical
- conditionContext: thermal decomposition
Answer each item with its documented Tm dec. (° C.).
One number for each entry, in °C.

| compound | Tm dec. (° C.) (°C) |
| --- | --- |
| CC(C)(C)COC(=O)C1CCC2(CC1)OOC1(O2)C2CC3CC(C2)CC1C3 (stereo not shown) [OZ64] | 163.8 |
| O=C(O)[C@H]1CC[C@]2(CC1)OOC1(O2)C2CC3CC(C2)CC1C3 (stereo partly shown) [OZ71] | 165.9 |
| CCOC(=O)CC1CCC2(CC1)OOC1(O2)C2CC3CC(C2)CC1C3 (stereo not shown) [OZ61] | 161.7 |
| O=C1CCC2(CC1)OOC1(CCCCC1)O2 [OZ02] | 193.3 |
| CCOC(=O)N1CCC2(CC1)OOC1(O2)C2CC3CC(C2)CC1C3 (stereo not shown) [OZ23] | 160.8 |

Parameters: items (list). Returns: Tm dec. (° C.) for each item.
1. N#CC1(c2ccccc2)CCC2(CC1)OOC1(O2)C2CC3CC(C2)CC1C3 (stereo not shown) [OZ63]
2. Fc1ccc(C2CCC3(CC2)OOC2(O3)C3CC4CC(C3)CC2C4)cc1 (stereo not shown) [OZ41]
3. O=C1CC2CC(C1)CC1(C2)OOC2(O1)C1CC3CC(C1)CC2C3 (stereo not shown) [OZ13]
4. OC1(c2ccc(F)cc2)CCC2(CC1)OOC1(O2)C2CC3CC(C2)CC1C3 (stereo not shown) [OZ76]
5. C1CCCCCC2(CCCCC1)OOC1(O2)C2CC3CC(C2)CC1C3 (stereo not shown) [OZ20]

Reply text:
[158.3, 159.0, 170.1, 149.6, 170.5]

Each recorded value in this set is attributed to patent US6486199B1.
